- tgt: human FcRn (Biorbyt, cat. no. orb 84388) (human) (UniProt P55899)
- protocol_text: SPR Biacore 2000, FcRn on CM5 chip, pH 6.0, 1:1 Langmuir; sample (2w) after 2 weeks at 37 C
reported_property: Kd (nM)
Only the number, expressed in nM, is required.

Sample Z17348 (designed binder) MGSSHHHHHHLQAEAKYAKEQDAAAHEIRWLPNLTFDQRVAFIHKLARQPEQSSELLSEAKKLSESQAPK ; Kd observed: 6.3
